Subject of test: T1, Peptide C (human PAR-2), C-terminal biotinylated (Human)
T1 construct: also called Peptide C C-Term
T1 peptide: SLIGKVGGGGS-biotin
Test method notes: peptide ELISA
Where no end group is shown, it is not given here.
Would you kindly list OD450 for each of these binders?

Look up OD450 for the entries below, preserving their order.
1. H2M609N (antibody, V domains shown, chimeric: human variable, mouse constant domains) VH: EVQLVESGGGLVQPGRSLRLSCAASGFTFDDYAMHWVRQAPGKGLEWVSGISWNSGSKGFADSVKGRFTISRDNAKNSLYLQMNSLRVEDTALYYCAKENWSFDYWGQGTLVTVSS VL: DIVMTQTPLSSPVTLGQPASISCRSSQSLVHSDGNIYLSWLQQRPGQPPRLLIYKISNRFSGVPDRFSGSGAGTDFTLKISRVEAEDVGIYYCMQASHFPYTFGQGTKLEIK
2. H2M591N (antibody, V domains shown, chimeric: human variable, mouse constant domains) VH: EVQLLESGGGLVQPGGSLRLSCATSGFTFSRYTMTWVRQAPGKGLFWVSGIGGSGGRAYYADSVKGRFTLSRDNSKNTLYLQMNSLRAEDTAVYYCAKEGDSGYDLDYWGRGTLVTVSS VL: DIQMTQYPSSLSASVGDRVTITCRARQGISNYLAWLQQKPGKAPKSLIYAASSLQRGVPSKFSGSGSGTDFTLTISSLQPEDSATYYCQQYKISPLTFGGGTKVEIK

0 to 0.09 od
0 to 0.09 od

# lookup: OD450 of H2M588N (antibody, V domains shown, chimeric: human variable, mouse constant domains) VH: EVQLLESGGGLVQPGGSLRLSCAASGFTFSSYAMTWVRQAPGKGLYWVSAISGGRGSAYYADSVKGRFTISRDNSKNTLYLQMNSLRAEDTAVYYCAKEGDSGYDLAYWGRGTLVTVSS VL: DIQMTQSPSSLSASVGDRVTITCRARQGISNNLAWLQQKPGKAPKSLIYAASSLQSGIPSKFSGSGSGTYFTLTISSLQPEDFATYYCQQYKSSPLTFGGGTKVEIK
0 to 0.09 od

Data origin, for the record: patent US20110059095A1
